Target: Intercellular adhesion molecule 1 (Homo sapiens, UniProt P05362)
Sequence (P05362 whole entry): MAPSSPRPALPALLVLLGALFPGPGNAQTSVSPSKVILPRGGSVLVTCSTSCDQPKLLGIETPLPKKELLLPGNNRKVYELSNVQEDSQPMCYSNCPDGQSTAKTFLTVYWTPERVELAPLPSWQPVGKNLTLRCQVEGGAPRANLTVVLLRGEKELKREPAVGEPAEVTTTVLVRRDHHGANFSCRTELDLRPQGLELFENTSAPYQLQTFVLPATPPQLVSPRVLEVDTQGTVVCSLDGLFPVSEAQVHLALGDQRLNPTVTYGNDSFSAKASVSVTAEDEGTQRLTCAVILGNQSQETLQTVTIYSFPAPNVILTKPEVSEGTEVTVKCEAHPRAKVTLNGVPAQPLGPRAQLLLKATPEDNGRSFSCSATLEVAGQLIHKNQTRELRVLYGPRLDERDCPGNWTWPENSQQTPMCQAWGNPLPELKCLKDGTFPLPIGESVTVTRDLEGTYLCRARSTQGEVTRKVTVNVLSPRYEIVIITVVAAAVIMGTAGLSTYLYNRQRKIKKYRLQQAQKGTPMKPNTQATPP
Assay: In vitro inhibitory potency compared to TNF-alpha induced Intercellular adhesion molecule-1 in human endothelial cells (ELISA assay)
Type: cell-based, Endothelial cell
readout: pIC50
Friendly reminder that pIC50 comes from taking -log10 of the concentration in mol/L.

Illustrative cases are given below, each with its answer.
• CNC(=O)c1cc2c(Oc3ccc(COCCOCCOC)cc3)cncc2s1 = 8.30
• NC(=O)c1cc2c(Oc3ccc(Br)cc3)cncc2s1 = 8.52

--- query ---
Note to self: pIC50 recorded for CNC(=O)c1cc2c(Oc3ccc(Cl)cc3)cncc2s1 was 7.82

---

Form field: pIC50 (one value per entry).
Biological target: Intercellular adhesion molecule 1 (Homo sapiens, UniProt P05362)
Assay: In vitro inhibitory potency compared to PMA induced Intercellular adhesion molecule-1 expression in human endothelial cells (ELISA assay)
Format: cell-based, Endothelial cell
Please note pIC50 is a logarithmic value: minus log10 of concentration in mol/L. Answer with that number alone.

• CNC(=O)c1cc2c(Oc3ccc(Cl)cc3)cncc2s1 = 7.82

# input for lookup
# pIC50 (compound: Cc1ccc(Sc2cncc3sc(C(N)=O)cc23)cc1 ) is 7.52

---

Molecular target: Intercellular adhesion molecule 1 (Homo sapiens, UniProt P05362)
Assay: In vitro inhibitory potency compared to IL1-beta induced Intercellular adhesion molecule-1 expression in human endothelial cells (ELISA assay)
Assay type: cell-based, Endothelial cell
readout: pIC50
# reply with the number alone; pIC50 is -log10 of concentration in mol/L

// sample Cc1ccc(Sc2cncc3sc(C(N)=O)cc23)cc1 , its pIC50 was 8.00

---

Biological target: Intercellular adhesion molecule 1 (Homo sapiens)
Test: Inhibition of intercellular adhesion molecule-1 (ICAM1) in human endothelial cells
Format: cell-based, Endothelial cell
The threshold is 0.02 µM. Values of IC50 beneath it are tagged yes; values meeting or exceeding it are tagged no.

Some entries whose results are on file:
* NC(=O)c1cc2c(Oc3ccc(C(=O)N4CCOCC4)cc3)cncc2s1 | no
* COCc1ccc(Oc2cncc3sc(C(N)=O)cc23)cc1 | yes
* NC(=O)c1cc2c(Oc3ccc(Cl)c(F)c3)cncc2s1 | yes

# check: IC50 < 0.02 µM for CNC(=O)c1cc2c(Oc3ccc(-n4cncn4)cc3)cncc2s1 no

Strictly below 0.02 µM: is that where IC50 of CNC(=O)c1cc2c(Oc3ccc(N4CCOCC4)cc3)cncc2s1 sits? no

---

Test: Solubility in pH 7.4 buffer.
Assay type: physicochemical
# reported log10(solubility); entries follow
Could you please treat all values as log10 of solubility in µg/mL?

* NC(=O)c1cc2c(Oc3ccc(C(O)CO)cc3)cncc2s1 (stereo not given) | 1.18

What the record says about COCc1ccc(Oc2cncc3sc(C(N)=O)cc23)cc1 : log10(solubility) is 0.79

So, CNC(=O)c1cc2c(Oc3ccc(COCCOC)cc3)cncc2s1 ? Its log10(solubility) was 1.41

Form: molecule = COCCOCCOCc1ccc(Oc2cncc3sc(C(N)=O)cc23)cc1 ; log10(solubility) = 2.20

molecule NC(=O)c1cc2c(Oc3ccc(Br)cc3)cncc2s1 , log10(solubility) observed: -0.34

---

Target: Intercellular adhesion molecule 1 (Homo sapiens, UniProt P05362)
Test: In vitro inhibitory potency compared to PMA induced Intercellular adhesion molecule-1 in human endothelial cells (ELISA assay)
Type: cell-based, Endothelial cell
readout: IC50 (nM)
Use nM as the unit, but write only the number.

* NC(=O)c1cc2c(Oc3ccc(Br)cc3)cncc2s1 | 6

Could you now look at the following molecule, please?
Just so you know, measured IC50 for CNC(=O)c1cc2c(Oc3ccc(COCCOCCOC)cc3)cncc2s1 came out at 5
